- experimental_details: melting temperature; fluorescence melt of hairpins on a sequencing array, two-state fit, raised by 9.35 °C to match UV melts
- condition_info: sodium 0.088 M
Consider the following sequences; for each one, report its Tm.
// note: answer is a bare numeric in °C

[in] Which Tm value belongs to GGAAATGGAAACATTTCC (((((((....))))))) ?
[out] 56.5

[in] Proceed to GATCACCTTGTGATC ((((((...))))))
[out] 58.8

[in] Can you check GCGCATGGAAACGTGTGC ((.((.(....).)).)) next?
[out] 46.6

[in] Queued: GTTGTCGAAAGACTTAAC ((((((....)))..)))
[out] 27.2

[in] Entry to check: GATCGTAGCGACGATC ((((((....))))))
[out] 54.9

[in] Query GGTGACGGAAACGCCACC ((((.((....)).)))) next
[out] 54.3

[in] Please give the result for GTTAAGCGAAAGCTGAAC (((.(((....))).))) too.
[out] 48.2

[in] Further, for GCTCACGGAAACACGAGC ((((..(....)..)))) ?
[out] 34

[in] Item: GATCGCGATGGCGATC ((((((....))))))
[out] 68.8

[in] Let us now turn to GTCCGTGGAAACGCGGAC (((((.(....).)))))
[out] 62.2

[in] Again, but for GATCATAAGATGATC ((((((...))))))
[out] 46.6

[in] Then GATCAGGCTCTGATC ((((((...)))))) ?
[out] 49.1

----------
- experimental_details: melting temperature; fluorescence melt of hairpins on a sequencing array, two-state fit, raised by 9.35 °C to match UV melts
- condition_info: sodium 0.088 M
Provide the reported Tm of each item.
All answers are understood in °C, so give the number only.

[in] Form field: reported Tm of CGTATACGGAAACGTACG (((..(((....))))))
[out] 33

[in] Follow-up entry: GTGCAGGGAAACCTGTAC ((.((((....)))).))
[out] 49.6

[in] Please answer likewise for GCTCCGCGAAAGCCCAGC (((..((....))..)))
[out] 23.2

[in] Same question, GGTAGGGGAAACCTTGCC ((.(.((....)).).)) this time
[out] 34.7

[in] Also check GGGTAATCGAAAGATCCC (((..(((....))))))
[out] 35.9

[in] Would you kindly repeat that for CGTACGGAAACGTTGACG ((((((....)))..))) ?
[out] 36.3

----------
- experimental_details: folding enthalpy; higher = less favourable; fluorescence melt of hairpins on a sequencing array, two-state fit
- condition_info: sodium 0.088 M
assay_endpoint: folding enthalpy (kcal/mol)
Write the number in kcal/mol without appending the unit.

[in] Can you look up the measured folding enthalpy of GCCGACGAAAGTCCTGGC ((((((....)))..))) for me?
[out] -20.2

[in] Here is the next sequence: GTAACTGAAAAGTTAC ((((((....))))))
[out] -31.4

[in] What do you get for GCGCCTGGAAACAGACGC (((.(((....))).))) ?
[out] -29.4

[in] Request: GATCTTACTCAAGATC ((((((....))))))
[out] -33.5

[in] Same thing, different sequence: GATCTCATGGGAGATC ((((((....))))))
[out] -37

[in] Also GATCCACTACTGGATC ((((((....)))))) , if possible.
[out] -35.5

[in] How about GCGACCGAAAGGTTACGC ((((((....)))..))) ?
[out] -26.6

[in] Next sequence up: GAGAAAGGAAACTTTCTC (((((((....)))))))
[out] -39.2

[in] Now consider GATATCCGAAAGGAATC (((.(((....)))))) .
[out] -12.9

[in] Then what about the sequence GGAGGCCGAAAGGCTCC (((.(((....)))))) ?
[out] -21.1

[in] And what about the sequence GAACTGGGAAACCAGTCC (.(((((....))))).) ?
[out] -14.1

[in] Follow-up entry: GCTTTTGAAAAAAAGC ((((((....))))))
[out] -30.5

[in] Next entry: GATCGCACTGCGATC ((((((...))))))
[out] -35

[in] Queued: GCACAGCGAAAGCTCTGC (((.(((....))).)))
[out] -25.6

[in] And what about the sequence GCGTCATCGAAAGATCGC (((..(((....)))))) ?
[out] -24.4

[in] Now consider GCGCGTACGAAAGTACGC (((..(((....)))))) and answer again.
[out] -6.65

[in] What about GGTTACGAAAGTAAACC ((((((....))).))) ?
[out] -24.2

[in] One more sequence: GATCACGCACGTGATC ((((((....))))))
[out] -40.5

[in] Repeat with GTCTGGGAAACCAGAC ((((((....))))))
[out] -38.3

[in] What do we get for GCGCGACGAAAGTCTCGC (((.(((....))).))) ?
[out] -34.3

[in] Then GCAGAGCGAAAGCTTGC (((.(((....)))))) ?
[out] -20.6

[in] And for GTTGGGGGAAACCCTAAC (((.(((....))).))) ?
[out] -26.6

[in] And then GCGTCCAGACGC ((((....)))) , what is it?
[out] -28.7

[in] Try the sequence GCTCGCGAAAGCGACAGC ((((((....)))..)))
[out] -10.7

[in] Entry GATCAAGCTATTGATC ((((((....)))))) please
[out] -40.8

[in] Also GATCCATAGATGGATC ((((((....)))))) ?
[out] -33.5

[in] And for GAATTTGGAAACAAATTC (((((((....))))))) ?
[out] -45.1

[in] Next entry: GGTTCCGCGAAAGCGACC (((..(((....))))))
[out] -8.82

[in] For GCACCGCGAAAGCGTGGC ((..(((....)))..)) then?
[out] -16.5

[in] Try this sequence next: GAATACCGAAAGGTTTC (((.(((....))))))
[out] -16.5

[in] Same question, GGTCTCGAAAGAGATACC ((((((....)))..))) this time
[out] -15.2

[in] What would you report for GTCCGTGCGAAAGCAGAC (((..(((....)))))) ?
[out] -13.8

[in] Ok, now GAGAGTGGAAACGCTTTC ((.((.(....).)).))
[out] -9.25

[in] Now consider GTTCCAGGAAACTGAAAC (((.(((....))).))) and answer again.
[out] -19.4

[in] What do you have for GATCTGATTCAGATC ((((((...)))))) ?
[out] -35.8

[in] What about this sequence? GTCGTGCGAAAGCAGGAC (((.(((....))).)))
[out] -35.9

[in] // next record GGCACTGGAAACAGTGTC (.(((((....))))).)
[out] -37.8

[in] Would you mind doing GGTTGCGAAAGCAGCACC ((((((....)))..))) as well?
[out] -12.4

[in] What do we get for GGAATCGAAAGATGCTCC ((((((....)))..))) ?
[out] -10.7

[in] // query: GCCTTAGAAATAAGGC ((((((....))))))
[out] -30.2

[in] For GCAATGGAAACATTGC ((((((....)))))) then?
[out] -42.1

[in] Let us now turn to GATCTTATGAAGATC ((((((...))))))
[out] -28.1

[in] Please answer likewise for GTGATGCGAAAGCACCAC (((.(((....))).)))
[out] -29.2

[in] # repeat for GTGTCCGGAAACGGATAC ((.((((....)))).))
[out] -38.6

[in] // query: GGGGCCGAAAGGCAGCCC ((((((....)))..)))
[out] -14.6

[in] // repeat for GTTCACACGAAAGTGAAC (((..(((....)))))) and report
[out] -23.8

[in] Next entry: GTAAAAGCGAAAGCTTAC (((..(((....))))))
[out] -11.6

[in] Another sequence: GTACGGGCGAAAGCCTAC (((..(((....))))))
[out] -8.32

[in] Proceed to GCACACGGAAACGTGCGC ((.((((....)))).))
[out] -42.2

[in] Now give it for GTATCCGAAAGGAGTTAC ((((((....)))..))) too.
[out] -14.9
